target: TMEM16A (Mus musculus, UniProt Q8BHY3); construct: endogenous TMEM16A in LA795 cells; assay: whole-cell patch clamp in LA795 cells, Hill fit
Sequence (Q8BHY3 whole entry): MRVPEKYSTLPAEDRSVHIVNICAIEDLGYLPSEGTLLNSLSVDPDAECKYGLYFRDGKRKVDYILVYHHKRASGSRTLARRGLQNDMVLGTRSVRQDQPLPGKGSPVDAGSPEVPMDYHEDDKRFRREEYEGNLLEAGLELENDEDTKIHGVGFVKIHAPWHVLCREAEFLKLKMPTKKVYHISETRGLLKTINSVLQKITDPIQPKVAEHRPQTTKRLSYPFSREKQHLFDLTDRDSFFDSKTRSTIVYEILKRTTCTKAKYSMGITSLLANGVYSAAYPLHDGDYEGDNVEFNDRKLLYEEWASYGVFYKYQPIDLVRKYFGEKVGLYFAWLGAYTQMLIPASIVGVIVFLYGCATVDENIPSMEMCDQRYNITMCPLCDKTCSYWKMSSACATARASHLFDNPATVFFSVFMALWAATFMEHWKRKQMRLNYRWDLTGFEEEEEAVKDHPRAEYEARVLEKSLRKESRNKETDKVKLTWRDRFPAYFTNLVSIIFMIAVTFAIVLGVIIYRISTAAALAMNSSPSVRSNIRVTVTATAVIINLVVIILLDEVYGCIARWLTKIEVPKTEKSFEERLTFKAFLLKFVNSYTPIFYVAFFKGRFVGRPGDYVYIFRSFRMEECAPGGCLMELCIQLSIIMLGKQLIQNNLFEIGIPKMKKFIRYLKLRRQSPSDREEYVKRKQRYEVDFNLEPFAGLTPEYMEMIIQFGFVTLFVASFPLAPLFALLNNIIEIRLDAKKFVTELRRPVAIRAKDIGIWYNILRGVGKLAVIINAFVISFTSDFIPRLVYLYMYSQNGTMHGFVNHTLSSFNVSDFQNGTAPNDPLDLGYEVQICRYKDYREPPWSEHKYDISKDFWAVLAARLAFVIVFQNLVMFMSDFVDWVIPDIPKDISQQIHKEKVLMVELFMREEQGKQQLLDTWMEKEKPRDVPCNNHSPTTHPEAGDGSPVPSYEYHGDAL
endpoint.name: IC50 (µM)

1) COC(=O)C[C@](O)(CCCC(C)(C)O)C(=O)O[C@@H]1C(OC)=C[C@]23CCCN2CCc2cc4c(cc2[C@H]13)OCO4 = 11.4
